# Study Target: Delta-type opioid receptor (Homo sapiens, UniProt P41143)
# Sequence (P41143 whole entry): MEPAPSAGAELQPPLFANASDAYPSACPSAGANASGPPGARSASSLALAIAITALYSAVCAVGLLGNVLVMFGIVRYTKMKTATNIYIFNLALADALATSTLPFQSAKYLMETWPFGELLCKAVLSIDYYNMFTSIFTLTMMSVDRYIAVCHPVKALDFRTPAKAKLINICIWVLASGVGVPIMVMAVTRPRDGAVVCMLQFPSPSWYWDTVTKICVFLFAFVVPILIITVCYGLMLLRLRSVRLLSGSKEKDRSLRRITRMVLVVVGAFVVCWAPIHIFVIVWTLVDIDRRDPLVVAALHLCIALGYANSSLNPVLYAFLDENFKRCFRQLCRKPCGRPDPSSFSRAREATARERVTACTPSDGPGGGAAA
# Method: Displacement of [3H]Cl-DPDPE from human recombinant DOR expressed in CHO cells
Measurement Label: pKi
Please keep in mind that pKi is minus log10 of the molar concentration; only the number is needed.

Cc1ccccc1/C=C/C(=O)N[C@@]12CCC(=O)[C@@H]3Oc4c(O)ccc5c4[C@@]31CCN(CC1CC1)[C@@H]2C5 = 8.90
COc1ccc2c3c1O[C@H]1C(=O)CC[C@@]4(NC(=O)/C=C/c5ccc(C)cc5)[C@@H](C2)N(C)CC[C@]314 = 8.54
Cc1ccc(CCC(=O)N[C@@]23CCC(=O)[C@@H]4Oc5c(O)ccc6c5[C@@]42CCN(C)[C@@H]3C6)cc1 = 8.90
COc1ccc2c3c1O[C@H]1C(=O)CC[C@@]4(NC(=O)/C=C/c5ccc(Cl)cc5)[C@@H](C2)N(CC2CC2)CC[C@]314 = 8.32

# input for lookup
The value of pKi measured for the compound CN1CC[C@]23c4c5ccc(O)c4O[C@H]2C(=O)CC[C@@]3(NC(=O)/C=C/c2ccc([N+](=O)[O-])cc2)[C@H]1C5 turned out to be 9.27

----------
# Study Target: Kappa-type opioid receptor (Homo sapiens, UniProt P41145)
# Sequence (P41145 whole entry): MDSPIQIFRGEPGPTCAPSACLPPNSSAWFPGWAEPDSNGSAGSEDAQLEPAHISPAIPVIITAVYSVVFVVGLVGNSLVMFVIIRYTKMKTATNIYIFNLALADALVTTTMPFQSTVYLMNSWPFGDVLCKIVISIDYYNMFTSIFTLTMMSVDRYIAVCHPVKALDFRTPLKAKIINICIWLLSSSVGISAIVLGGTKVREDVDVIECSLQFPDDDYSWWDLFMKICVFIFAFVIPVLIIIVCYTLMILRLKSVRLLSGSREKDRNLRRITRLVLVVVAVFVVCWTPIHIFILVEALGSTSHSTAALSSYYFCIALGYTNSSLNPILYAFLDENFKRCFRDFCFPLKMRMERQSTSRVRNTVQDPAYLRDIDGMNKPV
# Method: Stimulation of [35S]GTP-gamma-S binding to human recombinant KOR
# pEC50 per record follows
// returns pEC50 (minus log10 of molar concentration), number only

COc1ccc2c3c1O[C@H]1C(=O)CC[C@@]4(NC(=O)/C=C/c5ccccc5C)[C@@H](C2)N(C)CC[C@]314 = 8.25
CN1CC[C@]23c4c5cccc4O[C@H]2C(=O)CC[C@@]3(NC(=O)/C=C/c2ccccc2Cl)[C@H]1C5 = 10.00
COc1ccc2c3c1O[C@H]1C(=O)CC[C@@]4(NC(=O)/C=C/c5ccccc5Cl)[C@@H](C2)N(C)CC[C@]314 = 8.07
COc1ccc2c3c1O[C@H]1C(=O)CC[C@@]4(NC(=O)/C=C/c5ccc(C)cc5)[C@@H](C2)N(C)CC[C@]314 = 7.08

Entry COc1ccc2c3c1O[C@H]1C(=O)CC[C@@]4(NC(=O)/C=C/c5ccccc5C)[C@@H](C2)N(CC2CC2)CC[C@]314 ; pEC50 = 8.74

The reported value for Cc1ccccc1/C=C/C(=O)N[C@@]12CCC(=O)[C@@H]3Oc4c(O)ccc5c4[C@@]31CCN(C)[C@@H]2C5 in terms of pEC50 is 9.70

So, COc1ccc2c3c1O[C@H]1C(=O)CC[C@@]4(NC(=O)/C=C/c5ccccc5Cl)[C@@H](C2)N(CC2CC2)CC[C@]314 ? Its pEC50 was 8.05

----------
# Study Target: Mu-type opioid receptor (Homo sapiens)
# Sequence (P35372 whole entry): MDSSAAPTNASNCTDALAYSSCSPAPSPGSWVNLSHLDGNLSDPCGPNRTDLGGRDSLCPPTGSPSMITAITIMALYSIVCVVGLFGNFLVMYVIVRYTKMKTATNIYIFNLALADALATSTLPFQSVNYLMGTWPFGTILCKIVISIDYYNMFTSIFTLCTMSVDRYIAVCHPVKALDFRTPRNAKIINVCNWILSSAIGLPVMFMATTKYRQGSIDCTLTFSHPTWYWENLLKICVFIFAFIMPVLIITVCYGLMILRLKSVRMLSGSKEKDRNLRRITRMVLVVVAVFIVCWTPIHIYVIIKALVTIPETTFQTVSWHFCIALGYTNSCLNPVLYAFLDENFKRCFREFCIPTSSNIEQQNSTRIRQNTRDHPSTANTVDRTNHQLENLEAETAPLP
# Method: Displacement of [3H]DAMGO from human recombinant MOR expressed in CHO cells
Exam item: assign true (1) to entries whose Ki is below 400 pM and false (0) to entries at or above 400 pM. Note that a value of exactly 400 pM receives false (0).

Please review the entries below; each comes with its answer.
COc1ccc2c3c1O[C@H]1C(=O)CC[C@@]4(NC(=O)/C=C/c5ccccc5Cl)[C@@H](C2)N(C)CC[C@]314 = false (0)
Cc1ccc(CCC(=O)N[C@@]23CCC(=O)[C@@H]4Oc5c(O)ccc6c5[C@@]42CCN(C)[C@@H]3C6)cc1 = true (1)
O=C(/C=C/c1ccc(Cl)cc1)N[C@@]12CCC(=O)[C@@H]3Oc4c(O)ccc5c4[C@@]31CCN(CC1CC1)[C@@H]2C5 = false (0)
O=C(/C=C/c1ccccc1Cl)N[C@@]12CCC(=O)[C@@H]3Oc4c(O)ccc5c4[C@@]31CCN(CC1CC1)[C@@H]2C5 = false (0)
CN1CC[C@]23c4c5ccc(O)c4O[C@H]2C(=O)CC[C@@]3(NC(=O)/C=C/c2ccc([N+](=O)[O-])cc2)[C@H]1C5 = true (1)

For this compound, is Ki lower than 400 pM? COc1ccc2c3c1O[C@H]1C(=O)CC[C@@]4(NC(=O)/C=C/c5ccc(C)cc5)[C@@H](C2)N(C)CC[C@]314
false (0)

Quick check: Ki of COc1ccc2c3c1O[C@H]1C(=O)CC[C@@]4(NC(=O)/C=C/c5ccc(Cl)cc5)[C@@H](C2)N(C)CC[C@]314 under 400 pM?
false (0)

Consider Cc1ccccc1/C=C/C(=O)N[C@@]12CCC(=O)[C@@H]3Oc4c(O)ccc5c4[C@@]31CCN(CC1CC1)[C@@H]2C5 . Does its Ki lie strictly below 400 pM?
false (0)

Ki strictly < 400 pM for this compound? Cc1ccc(/C=C/C(=O)N[C@@]23CCC(=O)[C@@H]4Oc5c(O)ccc6c5[C@@]42CCN(C)[C@@H]3C6)cc1
true (1)

Ki under 400 pM? Item: Cc1ccccc1/C=C/C(=O)N[C@@]12CCC(=O)[C@@H]3Oc4c(O)ccc5c4[C@@]31CCN(C)[C@@H]2C5
true (1)
